Each recorded value in this set is attributed to ChEMBL document CHEMBL3351613.

# target_under_test: Human immunodeficiency virus type 1 reverse transcriptase (Human immunodeficiency virus 1, UniProt Q72547, L100I)
Please respond with fulfilled when measured IC50 is strictly beneath 100 nM, and with not fulfilled in all other cases.

Solved entries:
Cc1cc(C)cc(S(=O)(=O)c2c(C(=O)NC(C)c3ccccc3)[nH]c3ccc(Cl)cc23)c1 (stereo unspecified) : fulfilled
Cc1cc(C)cc(S(=O)(=O)c2c(C(=O)NCCc3cccs3)[nH]c3ccc(Cl)cc23)c1 : fulfilled
Cc1cc(C)cc(S(=O)(=O)c2c(C(=O)NNc3ccncc3)[nH]c3ccc(Cl)cc23)c1 : not fulfilled
Cc1cc(C)cc(S(=O)(=O)c2c(C(=O)NC(C)c3ccccn3)[nH]c3ccc(Cl)cc23)c1 (racemic) : fulfilled

# next compound below
Q) I'd appreciate it if you could check whether Cc1cc(C)cc(S(=O)(=O)c2c(C(=O)NC(C)c3ccncc3)[nH]c3ccc(Cl)cc23)c1 (racemic) has IC50 smaller than 100 nM.
A) fulfilled

====

# target_under_test: Human immunodeficiency virus type 1 reverse transcriptase (Human immunodeficiency virus 1, UniProt Q72547, Y181I)
value_type: pIC50
Give bare numbers, as −log10 of the molar value.

For orientation, consider the following solved cases.
Cc1cc(C)cc(S(=O)(=O)c2c(C(=O)NCc3ccncn3)[nH]c3ccc(Cl)cc23)c1 : 8.38
Cc1cc(C)cc(S(=O)(=O)c2c(C(=O)NC(C)c3ccncc3)[nH]c3ccc(Cl)cc23)c1 (racemic) : 5.45
Cc1cc(C)cc(S(=O)(=O)c2c(C(=O)NCCn3c([N+](=O)[O-])cnc3C)[nH]c3ccc(Cl)cc23)c1 : 6.88
Cc1cc(C)cc(S(=O)(=O)c2c(C(=O)Nc3cccc(N)c3)[nH]c3ccc(Cl)cc23)c1 : 6.65

# batch: return pIC50 for each of the 3 molecules below
1. Cc1cc(C)cc(S(=O)(=O)c2c(C(=O)NC(C)c3ccccn3)[nH]c3ccc(Cl)cc23)c1 (racemic)
2. Cc1cc(C)cc(S(=O)(=O)c2c(C(=O)NC(C)c3ccccc3)[nH]c3ccc(Cl)cc23)c1 (centres undefined)
3. Cc1cc(C)cc(S(=O)(=O)c2c(C(=O)NCc3ccco3)[nH]c3ccc(Cl)cc23)c1

A)
1: 4.95; 2: 5.08; 3: 6.63

====

Field: CC50. Provide a value for each of the compounds that follow.
# procedure_details: Cytotoxic activity against human MT4 cells by MTT assay
# Format: cell-based

For orientation, consider the following solved cases.
Cc1cccc(C)c1S(=O)(=O)c1c(C(N)=O)[nH]c2ccc(Cl)cc12 : > 48.9 µM
Cc1cc(C)cc(S(=O)(=O)c2c(C(=O)NCc3ccncn3)[nH]c3ccc(Cl)cc23)c1 : > 55 µM
Cc1cc(C)cc(S(=O)(=O)c2c(C(=O)NC(C)c3ccncc3)[nH]c3ccc(Cl)cc23)c1 (racemic) : 30.2 µM

# batch: return CC50 for each of the 2 compounds below
1. O=C(NCc1ccncc1)c1[nH]c2ccc(Cl)cc2c1S(=O)(=O)c1c(Cl)cccc1Cl
2. Cc1cc(C)cc(S(=O)(=O)c2c(C(=O)NCc3ccco3)[nH]c3ccc(Cl)cc23)c1

A)
> 50.3 µM
> 56.4 µM

# batch: return CC50 for each of the 2 compounds below
1. Cc1cc(C#N)cc(C)c1Oc1nc(Nc2ccc(C#N)cc2)nc(N)c1Br [ETRAVIRINE]
2. Cc1cc(C)cc(S(=O)(=O)c2c(C(=O)NCCc3cccs3)[nH]c3ccc(Cl)cc23)c1

A)
1: > 30.6 µM; 2: > 52.9 µM

# batch: return CC50 for each of the 6 compounds below
1. Cc1cc(C)cc(S(=O)(=O)c2c(C(=O)NC(C)c3ccccn3)[nH]c3ccc(Cl)cc23)c1 (racemic)
2. Cc1ccnc2c1NC(=O)c1cccnc1N2C1CC1 [NEVIRAPINE]
3. Cc1cc(C)cc(S(=O)(=O)c2c(C(=O)NN(C)c3ccccc3)[nH]c3ccc(Cl)cc23)c1
4. Cc1cc(C)cc(S(=O)(=O)c2c(C(=O)NC(C)c3ccccc3)[nH]c3ccc(Cl)cc23)c1 (centres undefined)
5. Cc1cc(C)cc(S(=O)(=O)c2c(C(=O)Nc3cccc(N)c3)[nH]c3ccc(Cl)cc23)c1
6. Cc1cc(C)cc(S(=O)(=O)c2c(C(=O)NCc3cccs3)[nH]c3ccc(Cl)cc23)c1

A)
["54.6 µM", "> 18.8 µM", "44.1 µM", "> 53.5 µM", "23.8 µM", "> 54.5 µM"]

The recorded CC50 for entry Cc1cc(C)cc(S(=O)(=O)c2c(C(=O)NNc3ccncc3)[nH]c3ccc(Cl)cc23)c1 equals 30.3 µM
